system: MDA-MB-468 breast; test: NCI tumour cell line growth inhibition, 48 h; in the data active = GI50 below about 0.43 µM; inactive = the rest
Choose the fitting class; nothing outside true (1) = active, false (0) = inactive is accepted.

Worked set:
{"columns": ["Structure", "Group"],
 "data": [
  ["O=[N+]([O-])/C=C/c1ccc([N+](=O)[O-])cc1", "false (0)"],
  ["COc1cc(OC)cc(-c2cncn2-c2ccc(-c3nc4cc(OC)cc(OC)c4s3)cc2)c1", "false (0)"],
  ["C=C(C)[C@@H]1CC[C@]2(C(=O)NCCNCCNCCN)CC[C@]3(C)[C@H](CC[C@@H]4[C@@]5(C)CCC(=O)C(C)(C)[C@@H]5CC[C@]43C)[C@@H]12", "false (0)"],
  ["Cc1ccc(C[P+](c2ccccc2)(c2ccccc2)c2ccccc2)cc1", "true (1)"]
]}

Challenge: Answer briefly: the call reported for `COc1cc2ncn(-c3cc(OCc4ccccc4S(C)(=O)=O)c(C#N)s3)c2cc1OC` in this assay.
Response given: false (0)

---

tested on: MDA-MB-468 breast; assay: NCI tumour cell line growth inhibition, 48 h; in the data active means GI50 below about 0.43 µM; inactive means the rest
Choose the fitting class; nothing outside True for active, False for inactive is accepted.

Worked set:
{"columns": ["Structure", "Group"],
 "data": [
  ["COc1ccc(/C=C\\c2cc(OC)c(OC)c(OC)c2)cc1OCC(=O)Nc1nc2ccc(OC(F)(F)F)cc2s1", "False"],
  ["CCC(=O)c1ccc2c(c1)N(CCCN1CCN(CCO)CC1)c1ccccc1S2", "False"],
  ["CCN1CCC(CC(=O)Nc2n[nH]c3nc(-c4cccs4)c(Br)cc23)CC1", "False"],
  ["CCCCCCN1CCN(Cc2ccc(N(CC)CC)cc2)C(=O)C1=O", "False"]
]}

Challenge: Answer briefly: the call reported for `Nc1ccc(-n2c(=O)oc3ccc(Cl)cc3c2=O)c(Cl)c1` in this assay.
Response given: True

Challenge: Answer briefly: the call reported for `CCCCCCCCCCCCCCCCn1cc[n+](Cc2ccccc2)c1C` in this assay.
Response given: True

Challenge: Answer briefly: the call reported for `Nc1nc(-c2cccc([N+](=O)[O-])c2)c(N=Nc2ccc([N+](=O)[O-])cc2Cl)s1` in this assay.
Response given: True

Challenge: Answer briefly: the call reported for `N/C(=N\c1nc2ccccc2s1)NC(=O)Nc1cccc2ccccc12` in this assay.
Response given: True

Challenge: Answer briefly: the call reported for `Cc1ccc(F)cc1NC(=O)c1cc(Cl)ccc1Nc1ccccc1` in this assay.
Response given: False

Challenge: Answer briefly: the call reported for `COc1ccc2[nH]cc(-c3nc(-c4c[nH]c5ccncc45)cs3)c2c1` in this assay.
Response given: False

---

system: MDA-MB-468 breast; experiment: NCI tumour cell line growth inhibition, 48 h
Quick rule: TGI of at least 20 µM means fulfilled, below that means not fulfilled.

Worked set:
{"columns": ["Molecule", "Group"],
 "data": [
  ["Cc1cc(C)c2c(N)c3cccc(C)c3nc2n1", "not fulfilled"],
  ["CCCCCCN1CCN(Cc2ccc(N(CC)CC)cc2)C(=O)C1=O", "not fulfilled"]
]}

Challenge: Can `Nc1nc(-c2cccc([N+](=O)[O-])c2)c(N=Nc2ccc([N+](=O)[O-])cc2Cl)s1` be said to have TGI at or above 20 µM?
Response given: not fulfilled

Challenge: Can CCCn1cnc2c(c1=N)C(c1ccc(OC)cc1)c1sc3c(C)cccc3c1O2 (stereo unspecified) be said to have TGI at or above 20 µM?
Response given: not fulfilled

Challenge: Can `CCC(=O)c1ccc2c(c1)N(CCCN1CCN(CCO)CC1)c1ccccc1S2` be said to have TGI at or above 20 µM?
Response given: fulfilled
